Reference for the values: the supplement of paper PMC11208160

MEASUREMENT_PROTOCOL: recombinant barcode read abundance after kanamycin selection (control-corrected) (log10(CPM+1)); higher = more efficient recombination; sequences stand for … in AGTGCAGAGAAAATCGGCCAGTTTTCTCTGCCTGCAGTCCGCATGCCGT…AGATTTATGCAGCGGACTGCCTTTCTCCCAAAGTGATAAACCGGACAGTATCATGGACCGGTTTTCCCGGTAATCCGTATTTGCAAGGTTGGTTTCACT; site = the 11-nt target;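 further: IS621 recombinase and bridge RNA in Escherichia coli cells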
Classes (recombinant barcode read abundance (log10)): low: < 0.1; intermediate: ≥ 0.1 and < 0.3; high: ≥ 0.3

Lab log: TGCTCCTCTTGGGTTCTAACCTGTTGCCT (site TGCTCCTCTAG) — assign recombinant barcode read abundance (log10) category intermediate

Lab log: TATGGAGCTTGGGTTCTAACCTGTTGCTG (site TATGGAGCTCA) — assign recombinant barcode read abundance (log10) category high

Lab log: CCTGAATCTTGGGTTCTAACCTGTTGCCT (site CCTGAGTCTAG) — assign recombinant barcode read abundance (log10) category intermediate

Lab log: GGGGCGTCTTGGGTTCTAACCTGTTGCTG (site GGGGCGTCTCA) — assign recombinant barcode read abundance (log10) category high

Lab log: TACTAAACTTGGGTTCTAACCTGTTGCCT (site TACTAAACTAG) — assign recombinant barcode read abundance (log10) category intermediate

Lab log: CTACATTCTTGGGTTCTAACCTGTTGCGT (site CTAAATACTAC) — assign recombinant barcode read abundance (log10) category low

Lab log: ACCGCGACTTGGGTTCTAACCTGTTGCCT (site ACCGTGACTAG) — assign recombinant barcode read abundance (log10) category intermediate

Lab log: TAGAATCCTTGGGTTCTAACCTGTTGCAA (site TAGAATCCTGT) — assign recombinant barcode read abundance (log10) category intermediate

Lab log: CGGAATCCTTGGGTTCTAACCTGTTGCTT (site CGGAATCCTAC) — assign recombinant barcode read abundance (log10) category low

Lab log: CTCTAGGCTTGGGTTCTAACCTGTTGCCT (site CTCTAGGCTAG) — assign recombinant barcode read abundance (log10) category low

---

MEASUREMENT_PROTOCOL: recombinant barcode read abundance after kanamycin selection (control-corrected) (log10(CPM+1)); higher = more efficient recombination; sequences stand for … in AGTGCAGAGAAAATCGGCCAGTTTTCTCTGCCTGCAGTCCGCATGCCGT…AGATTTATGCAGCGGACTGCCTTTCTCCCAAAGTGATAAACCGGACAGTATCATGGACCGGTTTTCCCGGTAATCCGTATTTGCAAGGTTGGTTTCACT; site = the 11-nt target
Please respond with reported recombinant barcode read abundance (log10) for every item in the list.
Output spec: single numeric token, no unit.

Endpoint output: recombinant barcode read abundance (log10) of TAGGAAACTTGGGTTCTAACCTGTTGCGT (site TAGGACACTAC) . Value? 0.0791

Endpoint output: recombinant barcode read abundance (log10) of TCGCACACTTGGGTTCTAACCTGTTGCTG (site TCGCACACTCA) . Value? 0.548

Endpoint output: recombinant barcode read abundance (log10) of TACCACTCTTGGGTTCTAACCTGTTGCCT (site GACCACTCTAG) . Value? 0.13

Endpoint output: recombinant barcode read abundance (log10) of CTCATTCCTTGGGTTCTAACCTGTTGCTT (site CTCATTCCTAC) . Value? 0.482

Endpoint output: recombinant barcode read abundance (log10) of TATCCGACTTGGGTTCTAACCTGTTGCCA (site TATCCGACTGG) . Value? 0.0584

Endpoint output: recombinant barcode read abundance (log10) of TCCCATGCTTGGGTTCTAACCTGTTGCCT (site TCCCATCCTAG) . Value? 0.151

Endpoint output: recombinant barcode read abundance (log10) of GGACCCTCTTGGGTTCTAACCTGTTGCCT (site TGACCCTCTAG) . Value? 0.353

Endpoint output: recombinant barcode read abundance (log10) of GTCGGAGCTTGGGTTCTAACCTGTTGCGG (site GTCGGAGCTCC) . Value? 1.97

Endpoint output: recombinant barcode read abundance (log10) of TCCGCGACTTGGGTTCTAACCTGTTGCCT (site TCAGCGACTAG) . Value? 0.0444

Endpoint output: recombinant barcode read abundance (log10) of CTGGTGTCTTGGGTTCTAACCTGTTGCCT (site CTGGGGTCTAG) . Value? 0.0939

Endpoint output: recombinant barcode read abundance (log10) of TAGGCGTCTTGGGTTCTAACCTGTTGCAG (site TAGGCGTCTCT) . Value? 2.27

Endpoint output: recombinant barcode read abundance (log10) of GTGAGGTCTTGGGTTCTAACCTGTTGCCT (site GTGAGGTCTAC) . Value? 0.343

Endpoint output: recombinant barcode read abundance (log10) of GTCCTAACTTGGGTTCTAACCTGTTGCAC (site GTCCTAACTGT) . Value? 2.08

Endpoint output: recombinant barcode read abundance (log10) of CGGTCATCTTGGGTTCTAACCTGTTGCCT (site CGTTCATCTAG) . Value? 0.417

Endpoint output: recombinant barcode read abundance (log10) of TACCAGTCTTGGGTTCTAACCTGTTGCTT (site TACCTGTCTAA) . Value? 0.111

Endpoint output: recombinant barcode read abundance (log10) of AAGGCCGCTTGGGTTCTAACCTGTTGCCT (site AAGGCCGCTAG) . Value? 1.79

Endpoint output: recombinant barcode read abundance (log10) of TAATGTTCTTGGGTTCTAACCTGTTGCAT (site TAATGGTCTAT) . Value? 0.0924

Endpoint output: recombinant barcode read abundance (log10) of GAGAACACTTGGGTTCTAACCTGTTGCCT (site GAGAACACTAG) . Value? 2.01

Endpoint output: recombinant barcode read abundance (log10) of GAGCCGCCTTGGGTTCTAACCTGTTGCAT (site GGGACGCCTAT) . Value? 0.0756

Endpoint output: recombinant barcode read abundance (log10) of GACTCTCCTTGGGTTCTAACCTGTTGCAT (site GACTCTCCTAG) . Value? 0.186

Endpoint output: recombinant barcode read abundance (log10) of CGTGACCCTTGGGTTCTAACCTGTTGCTT (site CGTGACCCTAA) . Value? 0.691

Endpoint output: recombinant barcode read abundance (log10) of GTTGGAGCTTGGGTTCTAACCTGTTGCAG (site TATGGAGCTCT) . Value? 0.146

Endpoint output: recombinant barcode read abundance (log10) of TCCCGATCTTGGGTTCTAACCTGTTGCCT (site TCCCGACCTAG) . Value? 0.521

Endpoint output: recombinant barcode read abundance (log10) of TGTCTAGCTTGGGTTCTAACCTGTTGCGG (site TGTCTAGCTCC) . Value? 0.695

Endpoint output: recombinant barcode read abundance (log10) of CGTGAGACTTGGGTTCTAACCTGTTGCCT (site CGTTAGACTAG) . Value? 0.0487

Endpoint output: recombinant barcode read abundance (log10) of GGCATCCCTTGGGTTCTAACCTGTTGCCT (site GGCGTCCCTAG) . Value? 0.184

Endpoint output: recombinant barcode read abundance (log10) of TCACCGCCTTGGGTTCTAACCTGTTGCCT (site GCACCGCCTAG) . Value? 0.0186

Endpoint output: recombinant barcode read abundance (log10) of TACTCAACTTGGGTTCTAACCTGTTGCCT (site TACTAAACTAG) . Value? 0.376

Endpoint output: recombinant barcode read abundance (log10) of GTTGGAGCTTGGGTTCTAACCTGTTGCCT (site GTTCGAGCTAG) . Value? 0.487

Endpoint output: recombinant barcode read abundance (log10) of TAGGCGACTTGGGTTCTAACCTGTTGCTA (site TAGGCGACTTA) . Value? 0.454

Endpoint output: recombinant barcode read abundance (log10) of GAGTACCCTTGGGTTCTAACCTGTTGCGT (site GAGAATCCTAC) . Value? 0.107

Endpoint output: recombinant barcode read abundance (log10) of CATGCCGCTTGGGTTCTAACCTGTTGCCT (site CATGCCGCTAG) . Value? 1.73

Endpoint output: recombinant barcode read abundance (log10) of AAATGTACTTGGGTTCTAACCTGTTGCCT (site TGGGTCCCTTC) . Value? 0.0555

Endpoint output: recombinant barcode read abundance (log10) of AATGAATCTTGGGTTCTAACCTGTTGCCT (site AATGAATCTAG) . Value? 0.312

Endpoint output: recombinant barcode read abundance (log10) of CTATGACCTTGGGTTCTAACCTGTTGCGT (site CTATGACCTAA) . Value? 0.191

Endpoint output: recombinant barcode read abundance (log10) of CGAGATTCTTGGGTTCTAACCTGTTGCCT (site CGAGATTCTAG) . Value? 0.755

Endpoint output: recombinant barcode read abundance (log10) of ACTAGTGCTTGGGTTCTAACCTGTTGCCT (site AATAGTGCTAG) . Value? 0.111

Endpoint output: recombinant barcode read abundance (log10) of ACTTTAACTTGGGTTCTAACCTGTTGCTT (site ACTCTAACTAA) . Value? 0.229

Endpoint output: recombinant barcode read abundance (log10) of GCATGGACTTGGGTTCTAACCTGTTGCAG (site GCACGGACTCT) . Value? 1.92

Endpoint output: recombinant barcode read abundance (log10) of TGGCACTCTTGGGTTCTAACCTGTTGCTT (site AGGCACTCTCA) . Value? 0.177

Endpoint output: recombinant barcode read abundance (log10) of ATAGGACCTTGGGTTCTAACCTGTTGCCA (site ATAGGACCTTG) . Value? 1.57

Endpoint output: recombinant barcode read abundance (log10) of GTGGGCGCTTGGGTTCTAACCTGTTGCCT (site GTAGGCGCTAG) . Value? 0.973
